Source of measurements: ChEMBL document CHEMBL5252622

Test: Toxicity in rat assessed as NOAEL administered as single dose
Conditions: in vivo
measured-property: NOAEL (mg/kg)

* O=c1cc(CO)n(-c2c(Cl)cccc2Cl)c2c(Cl)cnc(OC[C@H](O)CO)c12 | 75

* * *

Experiment: Brain to plasma ratio in iv dosed rat measured after 30 mins
Type: ADME, organism-based
Conditions: read-out: BPR
measured-property: Kp at 0.5 h

• O=c1cc(CO)n(-c2c(Cl)cccc2Cl)c2c(Cl)cnc(OC[C@H](O)CO)c12 = 0.02

* * *

Target: Kir3.1/Kir3.2 (Homo sapiens, UniProt P48051+P48549)
Assay: Inhibition of GIRK1/2 (unknown origin) channel
Assay type: protein-complex assay
measured-property: IC50

* O=c1cc(CO)n(-c2c(Cl)cccc2Cl)c2c(Cl)cnc(OC[C@H](O)CO)c12 | 100 nM

* * *

Experiment: Aqueous solubility of the compound at pH 6.8
Assay type: physicochemical
Response field class: enum, chosen by comparing solubility against band 1 = under 200 µM, band 2 = from 200 µM up to 500 µM, band 3 = 500 µM and over

• CSc1c(C#N)c(=O)c2ccc(F)cc2n1-c1c(Cl)cccc1Cl = band 1
• Cc1cc(=O)c2c(OCC(O)COCC(O)CO)ncc(Cl)c2n1-c1c(Cl)cccc1Cl (stereo not given) = band 3
• Cc1cc(=O)c2c(F)cncc2n1-c1c(Cl)cc(C#CCO)cc1Cl = band 1
• O=c1cc(CO)n(-c2c(Cl)cccc2Cl)c2c(Cl)cnc(OCC(O)CO)c12 (stereo not given) = band 3
• COc1cc(Cl)c(-n2c(C)cc(=O)c3c(F)cncc32)c(Cl)c1 = band 1
• Cc1cc(=O)c2c(OCCO)ncc(Cl)c2n1-c1c(Cl)cccc1Cl = band 2
• O=c1cc(CO)n(-c2c(Cl)cccc2Cl)c2c(Cl)cnc(OC(CO)CO)c12 = band 2
• Cc1cc(=O)c2c(OCC(O)CC(O)CO)ncc(Cl)c2n1-c1c(Cl)cccc1Cl (stereo not given) = band 2
• Cc1cc(=O)c2c(F)cncc2n1-c1c(Cl)cc(OCC(O)CO)cc1Cl (stereo not given) = band 3

* * *

Molecular target: Potassium voltage-gated channel subfamily KQT member 1 (Homo sapiens, UniProt P51787)
Sequence (P51787 whole entry): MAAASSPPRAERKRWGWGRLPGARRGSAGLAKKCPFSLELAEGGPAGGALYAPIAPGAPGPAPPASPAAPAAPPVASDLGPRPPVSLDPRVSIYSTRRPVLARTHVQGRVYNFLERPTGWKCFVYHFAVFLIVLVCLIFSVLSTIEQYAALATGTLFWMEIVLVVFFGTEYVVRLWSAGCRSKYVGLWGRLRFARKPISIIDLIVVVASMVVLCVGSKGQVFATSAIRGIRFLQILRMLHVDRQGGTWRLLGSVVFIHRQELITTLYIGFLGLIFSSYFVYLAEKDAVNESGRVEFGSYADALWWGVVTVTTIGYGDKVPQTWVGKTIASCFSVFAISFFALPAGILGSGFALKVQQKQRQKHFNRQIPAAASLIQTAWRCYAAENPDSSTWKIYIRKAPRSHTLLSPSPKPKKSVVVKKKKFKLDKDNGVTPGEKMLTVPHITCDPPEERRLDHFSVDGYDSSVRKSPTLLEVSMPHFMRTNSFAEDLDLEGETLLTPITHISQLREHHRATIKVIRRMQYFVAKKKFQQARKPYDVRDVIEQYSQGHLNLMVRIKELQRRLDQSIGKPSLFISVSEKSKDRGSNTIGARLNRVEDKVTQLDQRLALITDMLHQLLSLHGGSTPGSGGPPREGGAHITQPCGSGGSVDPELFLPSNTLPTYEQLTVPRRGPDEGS
Test: Inhibition of recombinant human KCNQ1
Catalogue of molecules with associated IC50
measured-property: IC50

* O=c1cc(CO)n(-c2c(Cl)cccc2Cl)c2c(Cl)cnc(OC[C@@H](O)CO)c12 | > 50 µM
* Cc1cc(=O)c2c(F)cncc2n1-c1c(Cl)cc(C#N)cc1Cl | > 50 µM
* O=c1cc(CO)n(-c2c(Cl)cccc2Cl)c2c(Cl)cnc(OC[C@H](O)CO)c12 | > 50 µM
* CSc1c(C#N)c(=O)c2ccc(F)cc2n1-c1c(Cl)cccc1Cl | 33 µM

* * *

Test: Aqueous solubility of the compound at pH 6.8
Type: physicochemical
measured-property: log10(solubility) (log10 of the value in µM)

• Cc1cc(=O)c2c(OCC(O)CO)nc(N3CCOCC3)cc2n1-c1c(Cl)cccc1Cl (stereo unspecified) = 2.83
• Cc1cc(=O)c2c(OCCOCCOCCOCCO)ncc(Cl)c2n1-c1c(Cl)cccc1Cl = 2.78
• Cc1cc(=O)c2c(F)cncc2n1-c1c(Cl)cc(C#N)cc1Cl = 1.72
• COc1ncc(C)c2c1c(=O)cc(CO)n2-c1c(Cl)cccc1Cl = 2.45
• COc1ncc(Cl)c2c1c(=O)cc(CO)n2-c1c(Cl)cccc1Cl = 1.95
• Cc1cc(=O)c2c(F)cncc2n1-c1c(Cl)cc(C#CCN2CCOCC2)cc1Cl = 2.38

* * *

Test: Terminal half-life in iv dosed rat
Assay type: ADME, organism-based
Settings: in vivo, read-out: beta t1/2 (converted)
measured-property: half-life (h)

• O=c1cc(CO)n(-c2c(Cl)cccc2Cl)c2c(Cl)cnc(OC[C@H](O)CO)c12 = 1.3

* * *

Catalogue of molecules with associated pIC50
Target: Kir3.1/Kir3.4 (Homo sapiens, UniProt P48544+P48549)
Sequence (P48549 whole entry): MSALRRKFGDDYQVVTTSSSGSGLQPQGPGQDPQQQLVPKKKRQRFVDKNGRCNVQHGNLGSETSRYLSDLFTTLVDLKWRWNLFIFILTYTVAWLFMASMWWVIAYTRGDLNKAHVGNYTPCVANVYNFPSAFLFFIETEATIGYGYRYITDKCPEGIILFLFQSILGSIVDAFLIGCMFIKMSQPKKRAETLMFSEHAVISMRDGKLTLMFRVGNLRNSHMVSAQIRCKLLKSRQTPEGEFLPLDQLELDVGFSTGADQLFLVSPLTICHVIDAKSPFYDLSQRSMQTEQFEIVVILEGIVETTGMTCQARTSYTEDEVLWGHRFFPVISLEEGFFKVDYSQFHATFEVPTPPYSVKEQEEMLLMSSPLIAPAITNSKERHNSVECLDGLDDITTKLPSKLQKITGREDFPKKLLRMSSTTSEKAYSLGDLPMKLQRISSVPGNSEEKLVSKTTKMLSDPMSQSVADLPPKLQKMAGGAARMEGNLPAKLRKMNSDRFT
Sequence (P48544 whole entry): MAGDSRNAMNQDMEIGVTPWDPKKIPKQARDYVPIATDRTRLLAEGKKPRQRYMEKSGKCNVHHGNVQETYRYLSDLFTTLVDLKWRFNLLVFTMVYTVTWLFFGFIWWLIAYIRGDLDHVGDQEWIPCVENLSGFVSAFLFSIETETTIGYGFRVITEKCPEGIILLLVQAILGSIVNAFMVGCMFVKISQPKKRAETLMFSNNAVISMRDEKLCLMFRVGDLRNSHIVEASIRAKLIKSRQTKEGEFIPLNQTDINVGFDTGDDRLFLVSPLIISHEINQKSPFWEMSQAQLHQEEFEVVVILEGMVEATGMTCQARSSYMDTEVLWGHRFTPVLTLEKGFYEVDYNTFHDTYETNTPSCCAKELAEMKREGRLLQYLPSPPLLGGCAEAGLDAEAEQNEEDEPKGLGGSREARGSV
Assay: Inhibition of recombinant human GIRK1/4 channel
pIC50: −log10 of the molar value.
measured-property: pIC50

• CS(=O)(=O)CCCOc1ncc(Cl)c2c1c(=O)cc(CO)n2-c1c(Cl)cccc1Cl = 7.00
• Cc1cc(=O)c2c(OCC(O)CC(O)CO)ncc(Cl)c2n1-c1c(Cl)cccc1Cl (stereo not drawn) = 7.06

* * *

Assay: Apparent permeability across apical to basolateral side in MDCK cells
Type: ADME, cell-based, Canis lupus familiaris
Settings: dog
measured-property: Papp A→B

- O=c1cc(CO)n(-c2c(Cl)cccc2Cl)c2c(Cl)cnc(OCC(O)CO)c12 (centres undefined): 7 ×10⁻⁶ cm/s
- Cc1cc(=O)c2c(OCCO)ncc(Cl)c2n1-c1c(Cl)cccc1Cl: 32.6 ×10⁻⁶ cm/s
- O=c1cc(CO)n(-c2c(Cl)cccc2Cl)c2c(Cl)cnc(OC(CO)CO)c12: 6.9 ×10⁻⁶ cm/s
- Cc1cc(=O)c2c(OCC(O)CO)nc(N3CCOCC3)cc2n1-c1c(Cl)cccc1Cl (centres undefined): 13.1 ×10⁻⁶ cm/s
